System: recombinant human CFTR carrying the premature stop codon (PTC) mutation G542X
Experiment: CFTR-PTC mutant translation readthrough, Nanoluc tagged CFTR luminescence (G542X cell line)
Format: cell-based
Conditions: fold over 10 μM G-418; in combination with G418; G542X cell line
Excerpt: […]
RESULT TYPE: CFTR G542X ACTIVITY Fold 10 μM G-418

Please review the entries below; each comes with its answer.
Would you mind telling me what CFTR G542X ACTIVITY Fold 10 μM G-418 value was observed for `OCc1cc(-c2ncc(OCc3c(Cl)cccc3Cl)cn2)[nH]n1` ? A′ (A′ = ≥10X)

Please give the measured CFTR G542X ACTIVITY Fold 10 μM G-418 for this compound: `CN1CC(=O)N(c2ccc(OCc3c(Cl)cccc3C(F)(F)F)cn2)C1=O` A′ (A′ = ≥10X)

Find the recorded CFTR G542X ACTIVITY Fold 10 μM G-418 belonging to `COC(=O)c1ncn(-c2ccc(OCc3c(C)cccc3C(F)(F)F)cc2)n1` and report it. A′ (A′ = ≥10X)

May I ask what CFTR G542X ACTIVITY Fold 10 μM G-418 has been recorded for NC(=O)C1CCN(c2ncc(OCc3c(Cl)cccc3Cl)cn2)C1 (centres unmarked) ? A′ (A′ = ≥10X)

***
Field request: CFTR G542X ACTIVITY Fold 10 μM G-418 | item: O=C1OCC2CN(c3ncc(OCc4c(Cl)cccc4Cl)cn3)CCN12 (centres unmarked) A′ (A′ = ≥10X)

Please look up its CFTR G542X ACTIVITY Fold 10 μM G-418: O=C1OC(CO)CN1c1ncc(OCc2c(Cl)cccc2C(F)(F)F)cn1 (centres unmarked) A′ (A′ = ≥10X)

May I ask what CFTR G542X ACTIVITY Fold 10 μM G-418 has been recorded for `OCc1cn(-c2ncc(OCc3c(Cl)cccc3Cl)cn2)nn1` ? A′ (A′ = ≥10X)

====

System: recombinant human CFTR carrying the premature stop codon (PTC) mutation G542X
Assay: CFTR-PTC mutant translation readthrough, Nanoluc tagged CFTR luminescence (G542X cell line)
Assay type: cell-based
Details: fold over 10 μM G-418; in combination with G418; G542X cell line
RESULT TYPE: CFTR G542X ACTIVITY Fold 10 μM G-418

Example results:
Can you share its CFTR G542X ACTIVITY Fold 10 μM G-418? I mean this compound: CC(O)C1CN(c2ccc(OCc3c(Cl)cccc3Cl)cc2)C(=O)O1 (stereo not drawn) A′ (A′ = ≥10X)

Param item = `NCc1cn(-c2ccc(OCc3c(Cl)cccc3Cl)cc2)cn1` ; retrieve measured CFTR G542X ACTIVITY Fold 10 μM G-418. B′ (B′ = ≥5X to <10X)

Report CFTR G542X ACTIVITY Fold 10 μM G-418 for OCC1CN(c2ncc(OCc3c(Cl)cccc3C3CC3)cn2)CCO1 (stereo not drawn) please. A′ (A′ = ≥10X)

Tell me the measured CFTR G542X ACTIVITY Fold 10 μM G-418 of Cc1cccc(C(F)(F)F)c1COc1cnc(N2CCC(O)C(F)(F)C2)nc1 (stereo not drawn) , please. C′ (C′ = <5X)

For the compound Cc1cccc(C(F)(F)F)c1COc1cnc(N2CC(CO)OCC2=O)nc1 (stereo not drawn) , what CFTR G542X ACTIVITY Fold 10 μM G-418 is on record? A′ (A′ = ≥10X)

More entries:
So what's the measured CFTR G542X ACTIVITY Fold 10 μM G-418 for this one? `O=C1CCC(=O)N1c1ccc(OCc2c(Cl)cccc2Cl)cc1` A′ (A′ = ≥10X)

Value lookup for CFTR G542X ACTIVITY Fold 10 μM G-418; key = O=C(O)C1CCN(c2ncc(OCc3c(Cl)cccc3C(F)(F)F)cn2)CC1 [1-[5-[[2-chloro-6-(trifluoromethyl)phenyl]methoxy]pyrimidin-] A;

Look at this compound and give its reported CFTR G542X ACTIVITY Fold 10 μM G-418. `Cc1cccc(C(F)(F)F)c1COc1ccc(-n2cnc(C(N)=O)n2)cc1` B′ (B′ = ≥5X to <10X)
